Tested on: SK-MEL-28 melanoma
Experiment: NCI tumour cell line growth inhibition, 48 h
Value Type: TGI

| Compound | TGI |
| --- | --- |
| CC(C)[Si](OC1=C(C(=O)N(C)c2cccc(Cl)c2)CCCC1)(C(C)C)C(C)C | 28.6 µM |
| NC(N)=N/N=C(\c1nc2ccc([N+](=O)[O-])cc2[nH]c1=O)C(O)c1ccc([N+](=O)[O-])cc1 (configuration not stated) | > 100 µM |
| Cc1cccc(N2CCN(C(=S)c3ccc4c(c3)OCO4)CC2)c1 | > 100 µM |
| COC(=O)C1=CNC=C(C(=O)OC)C1C1=CC(=O)C(C)=CC1=O | > 59.6 µM |
| Cc1nc(-c2cc3cc([N+](=O)[O-])ccc3oc2=O)cs1 | > 100 µM |
| CSc1ncnc2c1ncn2C1CC(Oc2ccc(C)cc2)C(COc2ccc(C)cc2)O1 (configuration not stated) | > 100 µM |

Return the recorded TGI value; entry: CN1c2ccc(Cl)cc2C(=O)NC1c1ccc([N+](=O)[O-])s1 (configuration not stated) 43.7 µM

###

Listed below: TGI values for each entry.
Test system: SNB-78 CNS
Assay: NCI tumour cell line growth inhibition, 48 h

These recorded examples may help you get a feel for the data.
| Compound | Study System | TGI |
| --- | --- | --- |
| Cc1ccn2c(c1)nc1nc3ccccc3nc12 | SNB-78 CNS | > 100 µM |
| O=C1C2C3C=C4c5ccccc5N(c5ccccc5)C4(C2C(=O)N1Cc1ccccc1)C1C(=O)N(Cc2ccccc2)C(=O)C31 (stereo unspecified) | SNB-78 CNS | > 100 µM |
| COC1C=CC(O)C(CO)O1 (stereo unspecified) | SNB-78 CNS | > 100 µM |
| Cc1cccc(NC(=O)/C(=N\NC(C)(C)C)C2NC(=S)NC2=O)c1C (stereo unspecified) | SNB-78 CNS | > 100 µM |
| COC(=O)C1=C(C)N(NC(=O)OC(C)(C)C)C(=O)C1=P(c1ccccc1)(c1ccccc1)c1ccccc1 | SNB-78 CNS | > 100 µM |

Report TGI, nothing else, for this compound: `NCCCCN(CCCN)/[N+]([O-])=N\O` > 100 µM

Give TGI for the following compound: O=P(Nc1ccc(Cl)cc1)(Oc1ccccc1)N(CCCl)CCCl (stereo unspecified) > 100 µM

Determine its reported TGI: `Cc1ccc(C2=C(c3ccccc3)C(Br)(c3ccc(C)cc3)C(c3ccccc3)=C2c2ccc(C)cc2)cc1` > 100 µM

Give the measured TGI for C[C@@H]1CC(=O)C2CCCC1C2=O (stereo partly specified) > 100 µM

Give a short answer stating reported TGI for COC1(OC)C2(Cl)C(Cl)=C(Cl)C1(Cl)C1C=CC=CC12 (stereo unspecified) . > 100 µM

# return recorded TGI for input `COc1cc(C=C2C(=O)NC(=O)NC2=O)cc(OC)c1OC` > 100 µM

###

Recorded TGI by entry
Tested on: SK-MEL-5 melanoma
Test: NCI tumour cell line growth inhibition, 48 h

Look over these answered cases.
| Compound | TGI |
| --- | --- |
| CCOc1ccccc1N=Nc1ccc2oc(=O)c(C(=O)Nc3cccc(C)c3)cc2c1 | 32.8 µM |
| Cc1nc(N)sc1C(=O)/C=C\c1ccc2c(c1)OCO2 | > 100 µM |
| O=C1C=CC[C@H]2O[C@@H](COC(=O)Cc3ccccc3)C[C@H]2O1 | > 100 µM |
| O=C(Cc1ccccc1)NN1C(=O)C(Cl)C1c1cc(Br)ccc1O (stereo unspecified) | > 100 µM |
| COC(=O)C1=CNC=C(C(=O)OC)C1C1=CC(=O)C(C)=CC1=O | 43.7 µM |

Identify TGI associated with the compound `N#CCN1C(=O)c2cccc3cc([N+](=O)[O-])cc(c23)C1=O` > 100 µM

Name the recorded TGI of the item `CC(C)[Si](OC1=C(C(=O)N(C)c2cccc(Cl)c2)CCCC1)(C(C)C)C(C)C` in your answer. 34.2 µM

For the compound `COc1ccc(Nc2c3ccccc3nc3occc23)cc1` , give its reported TGI. 13.4 µM

Please indicate TGI recorded for CCCCN1C(=O)N(c2ccc(OCC)cc2)C2N(CCCC)C1C(C)(C)C2(C)C (stereo unspecified) 67.7 µM

Quickly give me recorded TGI for `O=C(NI1OC(=O)c2ccccc21)c1ccc(Cl)cc1` > 100 µM

Give the reported TGI for this compound. `CN1CCC(O)(C(C)(C)C)CC1` > 100 µM
